- testedSystem: vasopressin receptors (^3 H-vasopressin binding) (Sus scrofa)
- Construct: average KD value determined on 3 preparations of hog kidney membranes; from tissue; host or cells: hog kidney medullary membranes
- Sequence (P32307 whole entry): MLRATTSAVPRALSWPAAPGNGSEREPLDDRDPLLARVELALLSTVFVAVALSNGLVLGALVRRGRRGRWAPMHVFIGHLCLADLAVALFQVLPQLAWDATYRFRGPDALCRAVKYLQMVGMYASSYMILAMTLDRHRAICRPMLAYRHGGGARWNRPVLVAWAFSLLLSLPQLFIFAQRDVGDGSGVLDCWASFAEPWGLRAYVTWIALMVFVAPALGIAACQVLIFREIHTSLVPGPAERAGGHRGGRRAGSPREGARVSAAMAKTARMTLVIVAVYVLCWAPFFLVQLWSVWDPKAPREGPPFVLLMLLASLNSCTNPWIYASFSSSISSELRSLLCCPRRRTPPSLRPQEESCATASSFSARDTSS
- testDetails: Binding assay, ^3 H-vasopressin, hog kidney membranes
- Design: species or system Pig
- reportedConditions: KB = IC50/(1+L/KD), ^3 H-vasopressin binding, hog kidney membranes; read-out: anti-ADH activity in vitro (Pig) KB
*1 amine or outer side, *2 acyl side, *3 side chain or, on linkers, in order; H or OH if unused. Where a SMILES comes first, the peptide text is derived from it. Bridges are numbered along the chain shown (N, C = ends). [ ]: non-standard residue; d: D form. X1 = O=C(CC1(S[*:2])CCCCC1)[*:1]; Abu = CC[C@H](N)C(=O)O
propertyMeasured: Kb (nM)

molecule	testedSystem	propertyMeasured	measuredResult
CC(C)[C@@H]1NC(=O)[C@H](Cc2ccccc2)NC(=O)[C@@H](Cc2ccc(O)cc2)NC(=O)CC2(CCCCC2)SSC[C@@H](C(=O)N2CCC[C@H]2C(=O)N[C@@H](CCCNC(=N)N)C(=O)O)NC(=O)[C@H](CC(N)=O)NC1=O [Compound 3] ([dY]FVNCPR-OH; linker N-5 via X1)	vasopressin receptors (^3 H-vasopressin binding) (Sus scrofa)	Kb	350
CCOc1ccc(C[C@H]2NC(=O)CC3(CCCCC3)SSC[C@@H](C(=O)N3CCC[C@H]3C(=O)N[C@@H](CCCNC(=N)N)C(N)=O)NC(=O)[C@H](CC(N)=O)NC(=O)[C@H](CC)NC(=O)[C@H](Cc3ccccc3)NC2=O)cc1 [Compound 6] ([dY](Et)F[Abu]NCPR-NH2; linker N-5 via X1)	vasopressin receptors (^3 H-vasopressin binding) (Sus scrofa)	Kb	18
CC(C)[C@@H]1NC(=O)[C@H](Cc2ccccc2)NC(=O)[C@@H](Cc2ccc(O)cc2)NC(=O)CC2(CCCCC2)SSC[C@@H](C(=O)N2CCC[C@H]2C(=O)N[C@@H](CCCNC(=N)N)C(N)=O)NC(=O)[C@H](CC(N)=O)NC1=O [Compound 2] ([dY]FVNCPR-NH2; linker N-5 via X1)	vasopressin receptors (^3 H-vasopressin binding) (Sus scrofa)	Kb	65
CCOc1ccc(C[C@H]2NC(=O)CC3(CCCCC3)SSC[C@@H](C(=O)N3CCC[C@H]3C(=O)N[C@@H](CCCNC(=N)N)C(N)=O)NC(=O)[C@H](CC(N)=O)NC(=O)[C@H](C(C)C)NC(=O)[C@H](Cc3ccccc3)NC2=O)cc1 [Compound 5] ([dY](Et)FVNCPR-NH2; linker N-5 via X1)	vasopressin receptors (^3 H-vasopressin binding) (Sus scrofa)	Kb	7.8
